Give measured pest or weed control at 250 g/ha for each item. Keep answers brief.
Tested on: Setaria faberi (SETFA)
Assay: Example B pre-emergence herbicidal activity, glasshouse pot test
Type: in vivo
Conditions: 312 h, Rate 250 g/ha, evaluated after 13 days, read-out: Pre-Emergence Activity SETFA (100=total damage to plant; 0=no damage to plant)
Report as a plain number; the unit % is understood.

IN: Quick one: pest or weed control at 250 g/ha for CCc1sc(-c2ccc(Br)cn2)nc1C1C(=O)[C@@H]2[C@H](C1=O)[C@H]1CC[C@@H]2O1 (stereo partly shown) [Compound T43] ?
OUT: 60

IN: Quick one: pest or weed control at 250 g/ha for Cc1sc(-c2ccc(Br)cn2)nc1C1C(=O)[C@@H]2[C@H](C1=O)[C@H]1CC[C@@H]2O1 (stereo partly shown) [Compound T38] ?
OUT: 90

IN: Quick one: pest or weed control at 250 g/ha for CCc1sc(-c2ccc(SC)cc2)nc1C1C(=O)[C@@H]2[C@H](C1=O)[C@H]1CC[C@@H]2O1 (stereo partly shown) [Compound T50] ?
OUT: 90

IN: Quick one: pest or weed control at 250 g/ha for Cc1sc(-c2ccc(C(C)C)cc2)nc1C1C(=O)[C@@H]2[C@H](C1=O)[C@H]1CC[C@@H]2O1 (stereo partly shown) [Compound T51] ?
OUT: 100

IN: Quick one: pest or weed control at 250 g/ha for CCc1sc(-c2ccc(Br)cc2C)nc1C1C(=O)[C@@H]2[C@H](C1=O)[C@H]1CC[C@@H]2O1 (stereo partly shown) [Compound T35] ?
OUT: 100

IN: Quick one: pest or weed control at 250 g/ha for CC(=O)OC1=C(c2nc(-c3ccc(Br)cn3)sc2C)C(=O)[C@H]2[C@@H]1[C@@H]1CC[C@H]2O1 (racemic) [Compound P5] ?
OUT: 100

IN: Quick one: pest or weed control at 250 g/ha for Cc1sc(-c2ccc(I)cc2)nc1C1C(=O)[C@@H]2[C@H](C1=O)[C@H]1CC[C@@H]2O1 (stereo partly shown) [Compound T33] ?
OUT: 100

IN: Quick one: pest or weed control at 250 g/ha for CC(=O)OC1=C(c2nc(-c3ccc(OC(F)F)cc3F)sc2C)C(=O)[C@H]2[C@@H]1[C@@H]1CC[C@H]2O1 (racemic) [Compound P10] ?
OUT: 100

IN: Quick one: pest or weed control at 250 g/ha for Cc1cc(Br)ccc1-c1nc(C2C(=O)[C@@H]3[C@H](C2=O)[C@H]2CC[C@@H]3O2)c(C)s1 (stereo partly shown) [Compound T39] ?
OUT: 90

IN: Quick one: pest or weed control at 250 g/ha for Cc1sc(-c2ccc(Br)cn2)nc1C1=C(OC(=O)C2CC2)[C@@H]2[C@H](C1=O)[C@H]1CC[C@@H]2O1 (racemic) [Compound P6] ?
OUT: 70

IN: Quick one: pest or weed control at 250 g/ha for CCc1sc(-c2ccc(Cl)cc2)nc1C1=C(OC(=O)C2CC2)[C@@H]2[C@H](C1=O)[C@H]1CC[C@@H]2O1 (racemic) [Compound P4] ?
OUT: 90

IN: Quick one: pest or weed control at 250 g/ha for Cc1[se]c(-c2ccc(Cl)cc2)nc1C1C(=O)[C@@H]2[C@H](C1=O)[C@H]1CC[C@@H]2O1 (stereo partly shown) [Compound T34] ?
OUT: 90

IN: Quick one: pest or weed control at 250 g/ha for Cc1sc(-c2ccc(Br)cc2F)nc1C1C(=O)[C@@H]2[C@H](C1=O)[C@H]1CC[C@@H]2O1 (stereo partly shown) [Compound T36] ?
OUT: 100

Values from patent US8530667B2
